molecular target: GLP-1 receptor (UniProt P43220); assay: cell-based or functional assay
Sequence (P43220 24-463 limits assumed): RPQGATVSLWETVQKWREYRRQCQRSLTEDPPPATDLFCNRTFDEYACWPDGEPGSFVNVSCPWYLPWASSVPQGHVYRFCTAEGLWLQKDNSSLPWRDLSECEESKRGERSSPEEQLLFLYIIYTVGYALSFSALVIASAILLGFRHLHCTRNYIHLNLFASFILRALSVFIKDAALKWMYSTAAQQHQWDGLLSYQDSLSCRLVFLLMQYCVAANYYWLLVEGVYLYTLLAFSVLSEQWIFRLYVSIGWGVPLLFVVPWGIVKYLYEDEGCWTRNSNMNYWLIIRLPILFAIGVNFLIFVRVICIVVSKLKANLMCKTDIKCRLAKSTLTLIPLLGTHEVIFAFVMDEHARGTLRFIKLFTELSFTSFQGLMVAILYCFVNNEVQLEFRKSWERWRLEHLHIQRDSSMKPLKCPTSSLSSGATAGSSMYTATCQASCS
ENDPOINT LABEL: GLP-1 (EC50) (nM)

BINDER: TSEYSKYLDERRAQDFVQWLMNTGPSSGAPPPS (PLA at position 6, N-terminal to the letters given; lactam between K12 and E16 (glucagon numbering)) [[PLA6, E9, K12E16 (Lactam)] glucagon (6-CEX) analog]
OBSERVED MEASUREMENT: 6
--
BINDER: FTSEYSKYLDERRAQDFVQWLMNTGPSSGAPPPS (lactam between K12 and E16 (glucagon numbering)) [Glucagon (6-CEX) analog E9, K12E16 (lactam)]
OBSERVED MEASUREMENT: 63
--
BINDER: FTSEYSKYLDERRAKDFVQWLMNTGPSSGAPPPS (lactam between E16 and K20 (glucagon numbering)) [Glucagon (6-CEX) analog E9, E16K20 (lactam)]
OBSERVED MEASUREMENT: 36
--
BINDER: FTSDYSKYLDERRAQDFVQWLMNTGPSSGAPPPS (lactam between K12 and E16 (glucagon numbering)) [Glucagon (6-CEX) analog D9, K12E16 (Lactam)]
OBSERVED MEASUREMENT: 119
